assay: Pharmacokinetic study in serum and brain; assay type: in vivo, mice; conditions: male, CD-1, mouse, ip; serum, i.p. 25 mg/kg, mice; read-out: λz (converted)
RECORDED_ENDPOINT: k el (s⁻¹)
Answer format: numeric, s⁻¹ implied, no suffix.

Requested read-out: k el. Entry: CC(=O)NC(C)C(=O)N1CCN(c2cccc(OC(F)(F)F)c2)CC1 (stereo not shown)
0.000117

###

Provide the reported fraction unbound of each item.
system: HSA and AGP; assay: in vitro; conditions: human, plasma
Lab note: record just the number, no unit beside it.

# query: fraction unbound of entry CC(=O)NC(C)C(=O)N1CCN(c2cccc(OC(F)(F)F)c2)CC1 (centres unmarked) [Compound 28]
0.17

Please look up its fraction unbound: CC(=O)NC(C)C(=O)N1CCN(c2cccc(C(F)(F)F)c2)CC1 (centres unmarked) [Compound 26]
0.214
